Hello, the source for this data is ChEMBL document CHEMBL1151264, in case you need it.

system: Staphylococcus epidermidis; experiment: Antibacterial activity against Staphylococcus epidermidis ATCC 12228; assay type: functional
Reported MIC by item:
reported-property: MIC (µg/mL)

• CN[C@H](CC(C)C)C(=O)N[C@H]1C(=O)N[C@@H](CC(N)=O)C(=O)N[C@H]2C(=O)N[C@H]3C(=O)N[C@H](C(=O)N[C@H](C(=O)O)c4cc(O)cc(O)c4-c4cc3ccc4O)[C@H](O)c3ccc(c(Cl)c3)Oc3cc2cc(c3O[C@@H]2O[C@H](CO)[C@@H](O)[C@H](O)[C@H]2O[C@H]2C[C@](C)(N)[C@H](O)[C@H](C)O2)Oc2ccc(cc2Cl)[C@H]1O = 0.625
• CN(C)[C@@H](Cc1c[nH]c2ccc(Br)cc12)C(=O)O = 25
• COC1(Cc2c[nH]c3cc(Br)ccc23)C(=O)N(C)C(=N)N1C (stereo not given) = 100
• COC(=O)Cc1c[nH]c2cc(Br)ccc12 = 6.25
• C[N+](C)(C)[C@@H](Cc1c[nH]c2ccc(Br)cc12)C(=O)O = 100

====

test system: Staphylococcus epidermidis; assay: Antibacterial activity against Staphylococcus epidermidis ATCC 12228; type: functional
reported-property: MIC (µg/mL)

• CN1C(=N)N(C)C(Cc2c[nH]c3cc(Br)ccc23)C1=O (stereo not given) = 25
• COC(=O)c1c[nH]c2cc(Br)ccc12 = 50
• CCOC1(Cc2c[nH]c3cc(Br)ccc23)C(=O)N(C)C(=N)N1C (stereo not given) = 12.5
• CN1C(=N)N(C)C(O)(Cc2c[nH]c3cc(Br)ccc23)C1=O (stereo not given) = 12.5
• CN1C(=N)N(C)/C(=C/c2c[nH]c3ccccc23)C1=O = 25
